B1: TRIM39 (parent)
chain: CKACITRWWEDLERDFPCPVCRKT

# Variants of: B1
# assay-comment: protein stability index of a GFP-peptide fusion (GPS, HEK-293T) (PSI 1-6); higher = more stable;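 note: lentivirally expressed fusions sorted by FACS into six bins by GFP to DsRed ratio, PSI derived from sequencing read proportions per bin multiplied by bin number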
# details: c terminus: a fixed tail appended
property-label: protein stability index
Provide a numeric answer; units are not to be included.

I5T :: 3.99
K2A :: 4.08
E13C :: 2.82
C1P :: 2.42
A3M :: 3.35
T6K :: 3.57

// field: protein stability index; key: "D15V" ; value = 3

Given item "L12F" , the value recorded as its protein stability index is 3.88

Recorded protein stability index (variant "V20S" ): 4.3

The reported value for "K23S" in terms of protein stability index is 3.63

# protein stability index of "D11C" = 3.38

Briefly, protein stability index measured for "L12M" : 4.14

The reported protein stability index of the variant "R7M" was 3.72

So, "C1A" ? Its protein stability index was 1.94

Measured protein stability index, "E13R" : 3.46

Memo: "I5D" , reported protein stability index: 4.36

Quick note, protein stability index for "T6Y" landed at 3.33

Consider "K23T" . Its measured protein stability index is 3.31

Just so you know, measured protein stability index for "D15G" came out at 3.31

// field: protein stability index; key: "L12V" ; value = 3.63

What the record says about "C21K" : protein stability index is 2.19

The recorded protein stability index for "I5F" is 4.22

For reference, reported protein stability index for "C4Y" stands at 1.61
